Assay: qHTS assay to identify small molecule agonists of the TGF-beta/Smad signaling pathway - cell viability counter screen (AID 1346829); also: top concentration of the series differs between compounds; % is scaled to controls: 0 for no effect and ±100 for the full control effect; nearly all actives have a fitted effect of over 45% in size
Details: SBE-bla HEK293T viability, CellTiter-Glo luminescence, 5 h; series mostly up to 76.8 µM
Records with an inconclusive call do not appear. Activity calls are given as the source filed them. Calls follow the shape of the dose curve; as a rule, active = well fitted cell-killing curve with a large enough effect in the repeat runs; inconclusive = weak or mixed curves, or effect the other way; inactive = flat fitted curve, though single readings scatter.
quantity.kind: activity change, negative = cytotoxicity

Recorded activity change, negative = cytotoxicity, per entry:
// query Fill in the blank: the reported activity change, negative = cytotoxicity of Cc1cc(N)n(-c2ccccc2)n1 is ____.
// result inactive

// query Another molecule to look at: Cc1ccc(S(=O)(=O)NC(=O)NC2CCCC2)cc1
// result inactive

// query Thanks! And NCCOCCOCCN ?
// result inactive

// query Follow-up entry: CCCCCO
// result inactive

Look up activity change, negative = cytotoxicity for the entries below, preserving their order.
1. CCOCCn1c(N2CCCN(C)CC2)nc2ccccc21
2. Cc1c(N=C=O)cccc1N=C=O

// result
1. inactive
2. inactive

I need activity change, negative = cytotoxicity for every entry listed below, if you could help.
1. Cc1cccc(C)c1NC(=O)CN1CCCC1
2. CNc1ccccc1
3. O=Cc1ccc([N+](=O)[O-])cc1
4. CCCCCCCCCCCCCCCCCCCl
5. Cc1ccc(NC(=O)c2ccc(CN3CCN(C)CC3)cc2)cc1Nc1nccc(-c2cccnc2)n1

// result
1: inactive; 2: inactive; 3: inactive; 4: 3.73% [at 6.97 µM] (inactive); 5: inactive

Please give activity change, negative = cytotoxicity for each item listed below.
1. Cc1ccc2ccccc2c1[N+](=O)[O-]
2. CC(O)CN (stereo not given)
3. CCCCOc1ccc(N)cc1
4. C=CC(O)CCCCC (stereo not given)

// result
inactive
inactive
inactive
inactive

###

Test: qHTS assay to identify small molecule agonists of the peroxisome proliferator-activated receptor delta (PPARd) signaling pathway - cell viability counter screen (AID 743211); also: % is scaled to controls: 0 for no effect and ±100 for the full control effect; nearly all actives have a fitted effect of over 55% in size
Conditions: PPARd-bla HEK293H viability, CellTiter-Glo luminescence, 17 h; series mostly up to 62.6 µM
Records with an inconclusive call do not appear. The source made the active and inactive calls. Calls follow the shape of the dose curve; as a rule, active = well fitted cell-killing curve with a large enough effect in the repeat runs; inconclusive = weak or mixed curves; inactive = no such curve, though single readings can be large or run the other way.
quantity.kind: activity change, negative = cytotoxicity

Answered cases to consult:
// query Fill blank: measured activity change, negative = cytotoxicity of the compound CCc1ccc(C(=O)C(C)CN2CCCCC2)cc1 (centres undefined) is ____.
// result inactive

// query Next compound: C=C(C)C(=O)OCCCCCCCCCCOC(=O)C(=C)C
// result inactive

// query Now consider CC(=O)Nc1ccccc1O .
// result inactive

// query And Cc1cc(C)n(CO)n1 ?
// result inactive

# return activity change, negative = cytotoxicity for each item in the list
1. CCCCOC(=O)CC#N
2. COc1ccc(CN(CCN(C)C)c2ncccn2)cc1
3. Cc1cccc(C)c1NC(=O)CN1CCCC1
4. CCC(C(=O)O)c1ccc(N2Cc3ccccc3C2=O)cc1 (centres undefined)
5. CCc1cnc(C(=O)O)c(C(=O)O)c1
6. FC(F)(Cl)C(F)(Cl)Cl

// result
1. inactive
2. inactive
3. inactive
4. inactive
5. inactive
6. inactive

Below are 3 compounds. Give each one its activity change, negative = cytotoxicity.
1. O=C(OCCCCCOC(=O)c1ccccc1)c1ccccc1
2. Cc1ccc(S(=O)(=O)NC(=O)NC2CCCC2)cc1
3. CC(=O)Nc1ccn(C2COC(COC(=O)c3ccccc3)O2)c(=O)n1 (centres undefined)

// result
["inactive", "inactive", "inactive"]

// query Requested field: activity change, negative = cytotoxicity. Item: CC(C)(C)NCC(O)COc1ccc(NC(=O)NC2CCCCC2)cc1 (centres undefined)
// result inactive
